molecular target: P-glycoprotein (Pgp) purified from MDR CH^RB30 Chinese hamster ovary cells (Cricetulus griseus, UniProt P21448); assay: Quenching of intrinsic Trp fluorescence of purified Pgp by nucleotides, drugs and peptides
Sequence (P21448 whole entry): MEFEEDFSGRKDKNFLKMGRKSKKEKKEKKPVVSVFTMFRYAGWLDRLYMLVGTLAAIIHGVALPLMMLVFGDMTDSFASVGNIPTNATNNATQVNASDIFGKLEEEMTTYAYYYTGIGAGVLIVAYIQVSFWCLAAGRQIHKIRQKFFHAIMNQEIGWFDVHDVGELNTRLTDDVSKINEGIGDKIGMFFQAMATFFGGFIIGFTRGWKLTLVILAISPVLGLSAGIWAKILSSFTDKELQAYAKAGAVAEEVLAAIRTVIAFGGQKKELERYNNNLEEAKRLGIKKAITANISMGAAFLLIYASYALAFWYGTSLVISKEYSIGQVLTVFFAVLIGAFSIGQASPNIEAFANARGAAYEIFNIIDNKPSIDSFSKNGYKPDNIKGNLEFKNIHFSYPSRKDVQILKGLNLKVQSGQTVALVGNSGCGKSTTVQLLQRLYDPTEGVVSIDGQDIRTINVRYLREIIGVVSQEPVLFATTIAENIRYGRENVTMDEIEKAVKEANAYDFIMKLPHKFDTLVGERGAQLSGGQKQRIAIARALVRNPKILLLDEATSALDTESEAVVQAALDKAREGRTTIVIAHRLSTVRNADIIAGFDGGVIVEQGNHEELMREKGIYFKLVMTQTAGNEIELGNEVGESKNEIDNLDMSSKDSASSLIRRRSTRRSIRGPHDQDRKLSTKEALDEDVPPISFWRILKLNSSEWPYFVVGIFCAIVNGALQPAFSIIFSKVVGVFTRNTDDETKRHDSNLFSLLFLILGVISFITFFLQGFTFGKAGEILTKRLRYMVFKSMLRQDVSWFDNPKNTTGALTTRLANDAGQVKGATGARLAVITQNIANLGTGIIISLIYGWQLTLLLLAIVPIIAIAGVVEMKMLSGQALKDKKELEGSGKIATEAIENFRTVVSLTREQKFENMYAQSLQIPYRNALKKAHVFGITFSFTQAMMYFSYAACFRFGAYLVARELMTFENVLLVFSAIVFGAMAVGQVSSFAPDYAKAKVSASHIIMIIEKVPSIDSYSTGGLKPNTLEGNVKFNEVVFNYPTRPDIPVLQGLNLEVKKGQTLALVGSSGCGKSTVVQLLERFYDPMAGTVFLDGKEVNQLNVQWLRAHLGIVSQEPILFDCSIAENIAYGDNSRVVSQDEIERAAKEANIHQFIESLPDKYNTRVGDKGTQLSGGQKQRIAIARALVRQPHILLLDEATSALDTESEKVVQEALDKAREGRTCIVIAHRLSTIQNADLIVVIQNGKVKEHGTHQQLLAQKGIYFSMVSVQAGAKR
Assay endpoint: Kd (nM)
Value expressed in nM; do not type the unit.

Fill blank: measured Kd of the molecule COc1cccc2c1C(=O)c1c(O)c3c(c(O)c1C2=O)C[C@@](O)(C(C)=O)C[C@@H]3O[C@H]1C[C@H](N)[C@H](O)[C@H](C)O1 [daunorubicin] is ____. 2970

Given the molecule COc1cccc2c1C(=O)c1c(O)c3c(c(O)c1C2=O)C[C@@](O)(C(=O)CO)C[C@@H]3O[C@H]1C[C@H](N)[C@H](O)[C@H](C)O1 [doxorubicin] , what is its reported Kd? 5440

Would you kindly share the measured Kd for CC(C)[C@@H]1NC(=O)[C@H](C)OC(=O)[C@@H](C(C)C)NC(=O)[C@@H](C(C)C)OC(=O)[C@H](C(C)C)NC(=O)[C@H](C)OC(=O)[C@@H](C(C)C)NC(=O)[C@@H](C(C)C)OC(=O)[C@H](C(C)C)NC(=O)[C@H](C)OC(=O)[C@@H](C(C)C)NC(=O)[C@@H](C(C)C)OC1=O [valinomycin] ? 720

The values you see were collected from patent US20040029100A1.
